From: patent US20050004211A1

system: SW-620; conditions: read-out: LC50 SW-620; Table 4
PARAMETER MEASURED: CC50

MOLECULE: N#Cc1ccccc1C#CC=CC#Cc1ccccn1 [Compound 27]
DATA VALUE: 80.5 µM
//
MOLECULE: N#Cc1ccccc1C#CC=CC#Cc1cnccn1 [Compound 30]
DATA VALUE: > 100 µM
//
MOLECULE: N#Cc1ccccc1C#CC=CC#Cc1ccccc1N [Compound 32]
DATA VALUE: > 100 µM

----------
tested on: Hepa: human hepatoma; experiment: In vitro anticancer assay (cytotoxicity), human solid tumor cells; settings: Homo sapiens, HepA, read-out: IC50 Values of Cytotoxicities, Hepa
PARAMETER MEASURED: IC50

MOLECULE: CCCCCCC#C/C=C\C#Cc1ccc(C#C/C=C\C#CCCCCCC)cc1 [Compound 11]
DATA VALUE: > 20 µg/mL

MOLECULE: CCCCCCC#C/C=C\C#Cc1cnccn1 [Compound 17, 2-(3-(Z)-Dodecen-1,5-diynyl)pyrazine]
DATA VALUE: 12.3 µg/mL

MOLECULE: CCCCCCC#C/C=C\C#Cc1ccccn1 [Compound 15, 2-(3-(Z)-Dodecen-1,5-diynyl)pyridine]
DATA VALUE: > 20 µg/mL

MOLECULE: CCCCC#C/C=C\C#Cc1ccccc1 [Compound 6, (3Z)-Decen-1,5-diynylbenzene]
DATA VALUE: > 20 µg/mL
